Listing of recorded Activity by entry.
- System: Ribosome
- assay_overview: Inhibition of ribosome-mediated translation of IDUA Q70X nonsense mutant gene expressed in rabbit reticulocytes harboring p2luc plasmid after 16 hrs by dual luciferase reporter gene assay
- Assay type: subcellular
- Set-up: scale not given: the % may be the effect or the level left
Answer with a number only, understood to be in %.

As a guide, the following entries are already answered.
smiles_data	output_unit	test_value
C[C@@H](N)[C@H]1O[C@@H](O[C@@H]2[C@@H](O)[C@H](N)C[C@H](N)[C@H]2O[C@H]2O[C@H]([C@@H](C)O)[C@@H](O)[C@H](O)[C@H]2N)[C@H](O)[C@@H]1O	%	20
C[C@@H](O)[C@H]1O[C@H](O[C@H]2[C@H](O[C@@H]3O[C@H](CN)[C@@H](O)[C@H]3O)[C@@H](O)[C@H](N)C[C@@H]2N)[C@H](N)[C@@H](O)[C@@H]1O	%	20

Would you kindly look at the next entry?
// returns reported Activity for input C[C@@H](O)[C@H]1O[C@H](O[C@H]2[C@H](O[C@@H]3O[C@H](CN)[C@@H](O)[C@H]3O)[C@@H](O)[C@H](NC(=O)[C@@H](O)CCN)C[C@@H]2N)[C@H](N)[C@@H](O)[C@@H]1O
50

----------
Listing of recorded Activity by entry.
- Test system: Ribosome
- assay_overview: Inhibition of ribosome-mediated translation of PCDH15 R245X nonsense mutant gene expressed in rabbit reticulocytes harboring p2luc plasmid after 16 hrs by dual luciferase reporter gene assay
- Format: subcellular
- Design: scale not given: the % may be the effect or the level left
Answer with a number only, understood to be in %.

// returns reported Activity for input C[C@@H](O)[C@H]1O[C@H](O[C@H]2[C@H](O[C@@H]3O[C@H](CN)[C@@H](O)[C@H]3O)[C@@H](O)[C@H](N)C[C@@H]2N)[C@H](N)[C@@H](O)[C@@H]1O
20

// returns reported Activity for input C[C@H](N)[C@H]1O[C@@H](O[C@@H]2[C@@H](O)[C@H](N)C[C@H](N)[C@H]2O[C@H]2O[C@H]([C@@H](C)O)[C@@H](O)[C@H](O)[C@H]2N)[C@H](O)[C@@H]1O
50

// returns reported Activity for input C[C@@H](O)[C@H]1O[C@H](O[C@H]2[C@H](O[C@@H]3O[C@H](CN)[C@@H](O)[C@H]3O)[C@@H](O)[C@H](NC(=O)[C@@H](O)CCN)C[C@@H]2N)[C@H](N)[C@@H](O)[C@@H]1O
50

// returns reported Activity for input C[C@@H](N)[C@H]1O[C@@H](O[C@@H]2[C@@H](O)[C@H](N)C[C@H](N)[C@H]2O[C@H]2O[C@H]([C@@H](C)O)[C@@H](O)[C@H](O)[C@H]2N)[C@H](O)[C@@H]1O
20

----------
- System: Escherichia coli
- assay_overview: Antibacterial activity against Escherichia coli R477/100 by microdilution method
- Type: functional
reported_endpoint: MIC (µM)
Answer with a number only, understood to be in µM.

As a guide, the following entries are already answered.
smiles_data	MIC, µM
C[C@@H](N)[C@H]1O[C@@H](O[C@@H]2[C@@H](O)[C@H](N)C[C@H](N)[C@H]2O[C@H]2O[C@H]([C@@H](C)O)[C@@H](O)[C@H](O)[C@H]2N)[C@H](O)[C@@H]1O	1540
C[C@@H](N)[C@H]1O[C@@H](O[C@@H]2[C@@H](O)[C@H](NC(=O)[C@@H](O)CCN)C[C@H](N)[C@H]2O[C@H]2O[C@H](CO)[C@@H](O)[C@H](O)[C@H]2N)[C@H](O)[C@@H]1O	1060

// returns reported MIC for input NCC[C@H](O)C(=O)N[C@@H]1C[C@H](N)[C@@H](O[C@H]2O[C@H](CO)[C@@H](O)[C@H](O)[C@H]2N)[C@H](O[C@@H]2O[C@H](CN)[C@@H](O)[C@H]2O)[C@H]1O
588

----------
Listing of recorded MIC by entry.
- Tested on: Escherichia coli
- assay_overview: Antibacterial activity against Escherichia coli R477/100 by microdilution method
- Assay type: functional
Mention the unit after the number when you answer.

As a guide, the following entries are already answered.
molecule	reported_endpoint	test_value
NC[C@H]1O[C@@H](O[C@@H]2[C@@H](O)[C@H](N)C[C@H](N)[C@H]2O[C@H]2O[C@H](CO)[C@@H](O)[C@H](O)[C@H]2N)[C@H](O)[C@@H]1O	MIC	790 µM
C[C@@H](N)[C@H]1O[C@@H](O[C@@H]2[C@@H](O)[C@H](N)C[C@H](N)[C@H]2O[C@H]2O[C@H](CO)[C@@H](O)[C@H](O)[C@H]2N)[C@H](O)[C@@H]1O	MIC	4990 µM
CN[C@@H]1[C@@H](O)[C@@H](O[C@@H]2[C@@H](O)[C@H](O[C@H]3O[C@H]([C@@H](C)O)[C@@H](O)[C@H](O)[C@H]3N)[C@@H](N)C[C@H]2N)OC[C@]1(C)O.O=S(=O)(O)O [GENETICIN SULFATE SALT]	MIC	9 µM
C[C@H](N)[C@H]1O[C@@H](O[C@@H]2[C@@H](O)[C@H](NC(=O)[C@@H](O)CCN)C[C@H](N)[C@H]2O[C@H]2O[C@H](CO)[C@@H](O)[C@H](O)[C@H]2N)[C@H](O)[C@@H]1O	MIC	1070 µM

Would you kindly look at the next entry?
// returns reported MIC for input C[C@@H](N)[C@H]1O[C@@H](O[C@@H]2[C@@H](O)[C@H](NC(=O)[C@@H](O)CCN)C[C@H](N)[C@H]2O[C@H]2O[C@H]([C@@H](C)O)[C@@H](O)[C@H](O)[C@H]2N)[C@H](O)[C@@H]1O
384 µM

----------
- assay_overview: Inhibition of ribosome S30 subunit-mediated protein synthesis in Escherichia coli after 60 mins by coupled transcription/translation assay
Structures can show the parent of a compound that is named as a salt.
reported_endpoint: pIC50
pIC50 field: float, defined as -log10 of concentration (mol/L).

compound	pIC50
C[C@H](N)[C@H]1O[C@@H](O[C@@H]2[C@@H](O)[C@H](NC(=O)[C@@H](O)CCN)C[C@H](N)[C@H]2O[C@H]2O[C@H]([C@@H](C)O)[C@@H](O)[C@H](O)[C@H]2N)[C@H](O)[C@@H]1O	5.74
CN[C@@H]1[C@@H](O)[C@@H](O[C@@H]2[C@@H](O)[C@H](O[C@H]3O[C@H]([C@@H](C)O)[C@@H](O)[C@H](O)[C@H]3N)[C@@H](N)C[C@H]2N)OC[C@]1(C)O.O=S(=O)(O)O [GENETICIN SULFATE SALT]	8.00
C[C@@H](N)[C@H]1O[C@@H](O[C@@H]2[C@@H](O)[C@H](N)C[C@H](N)[C@H]2O[C@H]2O[C@H](CO)[C@@H](O)[C@H](O)[C@H]2N)[C@H](O)[C@@H]1O	5.68
NC[C@H]1O[C@@H](O[C@@H]2[C@@H](O)[C@H](N)C[C@H](N)[C@H]2O[C@H]2O[C@H](CO)[C@@H](O)[C@H](O)[C@H]2N)[C@H](O)[C@@H]1O	6.30
C[C@@H](O)[C@H]1O[C@H](O[C@H]2[C@H](O[C@@H]3O[C@H](CN)[C@@H](O)[C@H]3O)[C@@H](O)[C@H](NC(=O)[C@@H](O)CCN)C[C@@H]2N)[C@H](N)[C@@H](O)[C@@H]1O	6.00
NC[C@@H]1O[C@H](O[C@H]2[C@@H](O)[C@H](O[C@@H]3[C@@H](O)[C@H](N)C[C@H](N)[C@H]3O[C@H]3O[C@H](CO)[C@@H](O)[C@H](O)[C@H]3N)O[C@@H]2CO)[C@H](N)[C@@H](O)[C@@H]1O [PAROMOMYCIN SULFATE]	7.30
C[C@@H](N)[C@H]1O[C@@H](O[C@@H]2[C@@H](O)[C@H](NC(=O)[C@@H](O)CCN)C[C@H](N)[C@H]2O[C@H]2O[C@H]([C@@H](C)O)[C@@H](O)[C@H](O)[C@H]2N)[C@H](O)[C@@H]1O	5.74
C[C@@H](N)[C@H]1O[C@@H](O[C@@H]2[C@@H](O)[C@H](NC(=O)[C@@H](O)CCN)C[C@H](N)[C@H]2O[C@H]2O[C@H](CO)[C@@H](O)[C@H](O)[C@H]2N)[C@H](O)[C@@H]1O	6.10

// returns reported pIC50 for input C[C@@H](O)[C@H]1O[C@H](O[C@H]2[C@H](O[C@@H]3O[C@H](CN)[C@@H](O)[C@H]3O)[C@@H](O)[C@H](N)C[C@@H]2N)[C@H](N)[C@@H](O)[C@@H]1O
5.96

// returns reported pIC50 for input C[C@H](N)[C@H]1O[C@@H](O[C@@H]2[C@@H](O)[C@H](N)C[C@H](N)[C@H]2O[C@H]2O[C@H](CO)[C@@H](O)[C@H](O)[C@H]2N)[C@H](O)[C@@H]1O
5.70

// returns reported pIC50 for input C[C@H](N)[C@H]1O[C@@H](O[C@@H]2[C@@H](O)[C@H](N)C[C@H](N)[C@H]2O[C@H]2O[C@H]([C@@H](C)O)[C@@H](O)[C@H](O)[C@H]2N)[C@H](O)[C@@H]1O
5.96

// returns reported pIC50 for input C[C@H](N)[C@H]1O[C@@H](O[C@@H]2[C@@H](O)[C@H](NC(=O)[C@@H](O)CCN)C[C@H](N)[C@H]2O[C@H]2O[C@H](CO)[C@@H](O)[C@H](O)[C@H]2N)[C@H](O)[C@@H]1O
5.64

// returns reported pIC50 for input NCC[C@H](O)C(=O)N[C@@H]1C[C@H](N)[C@@H](O[C@H]2O[C@H](CO)[C@@H](O)[C@H](O)[C@H]2N)[C@H](O[C@@H]2O[C@H](CN)[C@@H](O)[C@H]2O)[C@H]1O
6.70

// returns reported pIC50 for input C[C@@H](N)[C@H]1O[C@@H](O[C@@H]2[C@@H](O)[C@H](N)C[C@H](N)[C@H]2O[C@H]2O[C@H]([C@@H](C)O)[C@@H](O)[C@H](O)[C@H]2N)[C@H](O)[C@@H]1O
5.72
